Measurement Target: Growth factor receptor-bound protein 2 (Homo sapiens)
Assay Details: Binding affinity to Grb2 SH2 domain (53 to 163) (unknown origin) expressed in Escherichia coli SG13009 by ITC analysis
Square brackets hold non-standard residues; d marks the D form. Peptide text beside a SMILES is read from it. pY = N[C@@H](Cc1ccc(OP(=O)(O)O)cc1)C(=O)O; Ahp(2) = CCCCC[C@H](N)C(=O)O; Nle = CCCC[C@H](N)C(=O)O; Nva = CCC[C@H](N)C(=O)O; Abu = CC[C@H](N)C(=O)O
Endpoint Name: Ka (×10⁵ /M)

# count of solved cases: 3
Compound | Measurement Target | Endpoint Name | Unit Info | Obs Value
CCCC[C@H](NC(=O)[C@H](Cc1ccc(OP(=O)(O)O)cc1)NC(C)=O)C(=O)N[C@@H](CC(N)=O)C(N)=O (Ac-[pY]-[Nle]-Asn-NH2) | Growth factor receptor-bound protein 2 (Homo sapiens) | Ka | ×10⁵ /M | 8.4
CCCCC[C@H](NC(=O)[C@H](Cc1ccc(OP(=O)(O)O)cc1)NC(C)=O)C(=O)N[C@@H](CC(N)=O)C(N)=O (Ac-[pY]-[Ahp(2)]-Asn-NH2) | Growth factor receptor-bound protein 2 (Homo sapiens) | Ka | ×10⁵ /M | 7.8
CC[C@H](NC(=O)[C@H](Cc1ccc(OP(=O)(O)O)cc1)NC(C)=O)C(=O)N[C@@H](CC(N)=O)C(N)=O (Ac-[pY]-[Abu]-Asn-NH2) | Growth factor receptor-bound protein 2 (Homo sapiens) | Ka | ×10⁵ /M | 8.6

I. CCC[C@H](NC(=O)[C@H](Cc1ccc(OP(=O)(O)O)cc1)NC(C)=O)C(=O)N[C@@H](CC(N)=O)C(N)=O (Ac-[pY]-[Nva]-Asn-NH2)
II. CC(=O)N[C@@H](Cc1ccc(OP(=O)(O)O)cc1)C(=O)N[C@@H](C)C(=O)N[C@@H](CC(N)=O)C(N)=O (Ac-[pY]-Ala-Asn-NH2)
IN: Dear colleague, could you let me know whether I or II has the lower recorded Ka? Thanks. // respond with label for picked entry
OUT: II
(II: 2.2 ×10⁵ /M, I: 7.6 ×10⁵ /M)
